The values you see were collected from PubChem BioAssay (NCI).

test system: EKVX NSCLC; assay: NCI-60 one-dose screen, 48 h (100 = growth as untreated, 0 = no growth, -100 = all killed); settings: 10 µM unless noted
About 83,000 compounds went through this panel and 20% of them were active in at least one assay; those are over-represented in the sample as a whole.
Parameter threshold = 90%. Response is Y when growth meets or exceeds it, else N.

molecule	class
O=C1/C(=C2/C=Nc3ccccc32)N(O)c2ccccc21	N

Incoming: Is reported growth greater than or equal to 90% here: O=[N+]([O-])c1ccc(C2CC(c3ccccc3)=Nc3ccccc3S2)cc1 (stereo not given)
Outgoing: Y

Incoming: Now try O=C(CSc1nnc(-c2ccc(NC(=O)c3cccnc3)cc2)o1)N[C@@H](Cc1ccc(O)cc1)C(=O)O .
Outgoing: Y

Incoming: Item: COC(=O)[C@]12CC[C@@H](C)[C@H](C)[C@@H]1C1=CC[C@@H]3[C@@]4(C)C(C=O)=C[C@@](C)(COC(=O)/C=C/c5ccccc5)[C@@H]4[C@H](O)C[C@@]3(C)[C@]1(C)CC2
Outgoing: N

Incoming: Also, CCCCCCCCCCCC(c1ccccc1)[N+](C)(C)C (stereo not given) please.
Outgoing: N

Incoming: Continue with Cc1ccc(S(=O)(=O)Oc2cc(OS(=O)(=O)c3ccc(C)cc3)cc(OS(=O)(=O)c3ccc(C)cc3)c2)cc1
Outgoing: Y

Incoming: Likewise for Cc1ccc(C(=O)CSc2nc(-c3ccc(Br)cc3)c(C#N)c(=O)[nH]2)cc1 ?
Outgoing: Y

Incoming: COc1ccc(OC)c2c1[nH]c(=O)c1c3ncccc3cn21 , same question.
Outgoing: N

Incoming: Next record, please: Cc1cc(NCCCCNc2ccnc3cc(Cl)ccc23)nc(Nc2ccc(C(=O)N3CCCC3)cc2)n1
Outgoing: N

Incoming: How about C=CCNc1nc(NN2C(=O)c3cccc4cccc(c34)C2=O)nc(-n2cnc3ccccc32)n1 ?
Outgoing: N

Incoming: What do we get for COc1cccc(-c2nn(-c3ccccc3)cc2-c2ccnc(NCCNC(=O)Nc3cccc(C(F)(F)F)c3)c2)c1 ?
Outgoing: N

Incoming: Another molecule: C(=N\Nc1ncc(-c2cc3cc4c(cc3o2)OCO4)s1)/c1ccco1
Outgoing: N

Incoming: Next molecule up: O=c1c2cc(F)ccc2sc2c(NCCN3CCCCC3)nc3ccccc3c12
Outgoing: N

Incoming: Also, COc1cc(C2CC(=O)Nc3c2c(C)nn3-c2nc3ccccc3[nH]2)c(OC)c2c1OCO2 (stereo not given) please.
Outgoing: N

====

Kindly state growth for each of the entries shown.
system: SF-539 CNS; assay: NCI-60 one-dose screen, 48 h (100 = growth as untreated, 0 = no growth, -100 = all killed); conditions: 10 µM unless noted
This is part of a sample that, as a whole, favours compounds with a hit. Of some 83,000 tested, about 20% had one in any assay.
Give bare numbers, in %.

compound	readout type	reported result
CCCc1cc2c(=O)c(C(=O)OC)c[nH]c2cc1N(CC)CC	growth	97.6

Give one value of growth per listed compound.
1. c1csc(-c2c3ccc(=[N+]4CCCCC4)cc-3oc3cc(N4CCCCC4)ccc23)c1
2. Clc1cccc(Cl)c1/C=C/c1cc(/C=C/c2c(Cl)cccc2Cl)[nH]n1
3. CC(C)(C)C(CCc1ccc(Cl)cc1)N1CCN(C2CCCCC2)CC1 (stereo not given)
4. CCc1ccccc1NC(=O)/C(C#N)=C/c1ccc(OC)cc1

Outgoing:
1: -91.3; 2: -43.7; 3: 81.2; 4: 108

====

test system: 786-0 renal; experiment: NCI-60 one-dose screen, 48 h; conditions: 10 µM unless noted
About 83,000 compounds went through this panel and 20% of them were active in at least one assay; those are over-represented in the sample as a whole. Calls of active or inactive are those of the source. The calls were made as follows: active = growth percent below 10; inactive = the rest.
Outcome field: choose from Yes for active, No for inactive

As a guide, the following entries are already answered.
compound	class
O=S(=O)(NCCCNc1cc(-c2c(-c3cccc(O)c3)nc3sccn23)ccn1)c1cccc(Cl)c1	No
COc1ccc(C(=O)COc2ccc(/C=C3\Oc4ccccc4C3=O)cc2)cc1	No
CCN(CC)CCN1C(=O)c2c(c(C)c3c(oc4cc(O)ccc43)c2C)C1=O	Yes
N#Cc1c(-c2ccccc2)cc(-c2ccc(Nc3nc(Nc4ccc(F)cc4)nc(Nc4ccc(F)cc4)n3)cc2)nc1N	No
O=C1Nc2ccc(F)cc2C12Nc1cc(Cl)ccc1S2 (centres undefined)	No

Incoming: # lookup: test call for NC(=N\N=C/c1cccc([N+](=O)[O-])c1)/C(N)=N\N=C/c1cccc([N+](=O)[O-])c1
Outgoing: No

Incoming: Now the same for CC1=C([Se]CC(OC(=O)CC[Se]c2ccccc2)C(=O)NCCCCCC(=O)OCc2ccccc2)C(=O)c2ccccc2C1=O (centres undefined)
Outgoing: No

Incoming: Now consider CCN(CC)c1nc(SCC(=O)Nc2nc3ccc(C)cc3s2)nc(-c2ccccc2)c1C#N .
Outgoing: No

Incoming: Now try CC(=O)N1C(=S)NC(=O)C1Cn1c(-c2ccccc2)nc2ccccc21 (centres undefined) .
Outgoing: No

Incoming: Try the compound Cc1ccc(/C=C2\C(=O)N(C)c3ccc(S(=O)(=O)Nc4ccc(C(C)(C)C)cc4)cc32)s1
Outgoing: No

Incoming: Likewise for Cc1cccc(-c2nc(N(C)c3ccc4ncsc4c3)c3ccccc3n2)n1 ?
Outgoing: No

====

test system: RPMI-8226 leukemia; experiment: NCI-60 one-dose screen, 48 h (100 = growth as untreated, 0 = no growth, -100 = all killed); settings: 10 µM unless noted
About 83,000 compounds went through this panel and 20% of them were active in at least one assay; those are over-represented in the sample as a whole. Activity calls are given as the source filed them. How the source made its calls: active means growth percent below 10; inactive means the rest.
readout type: growth

compound	reported result
O=C(Nc1cccc2c(O)c(N=Nc3ccc(S(=O)(=O)Nc4nccs4)cc3)cc(N=Nc3ccc(S(=O)(=O)Nc4nccs4)cc3)c12)C(Cl)Cl	-10.9% (active)
COc1ccccc1N1C(=O)/C(=C/C2=Cc3ccccc3OC2)SC1=S	91.4% (inactive)
COc1cccc(-c2nc3sccn3c2-c2ccnc(NCCNS(=O)(=O)c3ccc(C(F)(F)F)cc3)c2)c1	3.52% (active)

Look at each compound and report its growth.
1. CNC(=O)NCC1OC(n2cnc3c(NC(=O)Nc4ccccc4)ncnc32)C(O[Si](C)(C)C(C)(C)C)C1CC(=O)N(C)OC (configuration not stated)
2. C=CCSc1nc2ccccc2cc1/C=N/O
3. CCOC(=O)c1c(-c2ccc(Cl)cc2)c(C#N)c(=O)n(-c2ccccc2CC)c1N

Outgoing:
1: -75.4% (active); 2: 86.7% (inactive); 3: 69.3% (inactive)

Parameters: items (list). Returns: growth for each item.
1. C[C@H]1[C@H]2[C@H]3CC[C@@H]4[C@@]5(C)C/C(=C/c6cccnc6)C(=O)C(C)(C)[C@@H]5CC[C@@]4(C)[C@]3(C)CC[C@]23CO[C@]1(C)[C@@H](C(=O)/C=C\c1cccnc1)C3
2. COc1ccc2[nH]c(O)c(/C=c3/cc4c(c(-c5ccc(F)c(OC)c5)n3)=Nc3ccccc3-4)c2c1
3. Cn1c(=O)c2c(nc(Cl)n2CCl)n(C)c1=O
4. CC(=O)[C@@H]1CC[C@]2(COS(=O)(=O)c3ccc(C)cc3)CC[C@]3(C)[C@H](CC[C@@H]4[C@@]5(C)CCCNC(C)(C)[C@@H]5CC[C@]43C)[C@@H]12

Outgoing:
["5.06% (active)", "-20.4% (active)", "92.3% (inactive)", "46.4% (inactive)"]

# return growth for each item in the list
1. O=[N+]([O-])c1ccc(OCCO)cc1
2. CCN(CC)CCn1nc2c3c(cccc3c1=O)-c1ccccc1-2
3. Cc1ccc(-c2cc(-c3ccccc3C)[nH]c(=O)c2C#N)s1
4. O=C1CC(N2C(=O)/C(=C/C(Cl)=C\c3ccc([N+](=O)[O-])cc3)SC2=S)C(=O)N1c1ccc(O)cc1 (configuration not stated)
5. COc1c(CCC[P+](c2ccccc2)(c2ccccc2)c2ccccc2)cc2c(c1OC)OCO2
6. CCc1c2c(nc3ccc(OC(=O)NCc4ccc(B5OC(C)(C)C(C)(C)O5)cc4)cc13)-c1cc3c(c(=O)n1C2)COC(=O)[C@]3(O)CC
7. COc1cc2nc(Cl)nc(Nc3ccc(S(=O)(=O)Nc4nccs4)cc3)c2cc1OC

Outgoing:
["101% (inactive)", "24.9% (inactive)", "97.5% (inactive)", "-15.1% (active)", "8.37% (active)", "10.1% (inactive)", "107% (inactive)"]

====

system: MOLT-4 leukemia; assay: NCI-60 one-dose screen, 48 h (100 = growth as untreated, 0 = no growth, -100 = all killed); details: 10 µM unless noted
About 83,000 compounds went through this panel and 20% of them were active in at least one assay; those are over-represented in the sample as a whole.
Record form. Attribute: growth. Fill in for each entry.
One number for each entry, in %.

Completed entries (count: 3):
compound	growth, %
C=C1C(=O)O[C@H]2[C@H]1CC/C(COC(=O)C(=O)c1cn(C)c3ccc(OC)cc13)=C\CC[C@@]1(C)O[C@@H]21	-16.6
O=c1c2cc(F)ccc2sc2c(Nc3cccnc3)nc3ccccc3c12	4.56
CC1O[C@@H](OC2[C@H](OC(=O)/C=C/c3ccc(O)c(O)c3)C(COC3O[C@H](C)C(O)C(O)[C@@H]3O)O[C@@H](OCCc3ccc(O)c(O)c3)[C@H]2O)[C@@H](O)C(O)[C@H]1O (some centres undefined)	99.1

// switching to the query compound
Incoming: Any idea what growth was measured for COc1ccc(-c2nc(SCCC(C)C)nc(N/N=C\c3cccc(Cl)c3)c2C#N)cc1 ?
Outgoing: 74.7
